# study target: Dual specificity protein kinase CLK4 (Homo sapiens)
# protocol description: Confirmation Assay for Inhibitors of CDC-like Kinase 4 (Kinase-Glo Assay)
# test parameters: recombinant Clk4, Kinase-Glo ATP depletion luminescence; series mostly up to 47.7 µM
Inconclusive results are not listed. Calls of active or inactive are those of the source. Calls follow the shape of the dose curve; as a rule, active = well fitted inhibition curve with a large enough effect; inconclusive = small, poorly fitted or top-dose-only effect; inactive = flat fitted curve, though single readings scatter.
property: Potency

// known answers, use as guide
In [3]: df
Out[3]:
                                   molecule    measured_value
0  c1nc(NCC2CCOC2)c2cc(-c3ccc4c(c3)OCO4)ccc2n1 (stereo unspecified)  58.2 nM (active)
1  CCN(Cc1cccs1)c1ncnc2ccc(-c3ccc4c(c3)OCO4)cc12  51.9 nM (active)
2    Fc1cccc(CNc2ncnc3ccc(-c4cccnc4)cc23)c1  3980 nM (active)
3  Cc1cccc(CNc2ncnc3ccc(-c4ccc5c(c4)OCCO5)cc23)c1   501 nM (active)
4  COc1cccc(-c2ccc3ncnc(NCc4cc(C)cs4)c3c2)c1   794 nM (active)

Field: next molecule
For the record Cc1csc(CNc2ncnc3ccc(-c4ccc5c(c4)OCCO5)cc23)c1 , what value of Potency is listed for Dual specificity protein kinase CLK4 (Homo sapiens)?
447 nM (active)
